From: patent US5220018A

target-or-test-system: CCK Receptor (Pancreas) (Rattus norvegicus, UniProt P30551)
Construct: The whole pancreas was dissected free of fat tissue and was homogenized; from tissue; host or cells: rat whole pancreas, homogenate membranes
Sequence (P30551 whole entry): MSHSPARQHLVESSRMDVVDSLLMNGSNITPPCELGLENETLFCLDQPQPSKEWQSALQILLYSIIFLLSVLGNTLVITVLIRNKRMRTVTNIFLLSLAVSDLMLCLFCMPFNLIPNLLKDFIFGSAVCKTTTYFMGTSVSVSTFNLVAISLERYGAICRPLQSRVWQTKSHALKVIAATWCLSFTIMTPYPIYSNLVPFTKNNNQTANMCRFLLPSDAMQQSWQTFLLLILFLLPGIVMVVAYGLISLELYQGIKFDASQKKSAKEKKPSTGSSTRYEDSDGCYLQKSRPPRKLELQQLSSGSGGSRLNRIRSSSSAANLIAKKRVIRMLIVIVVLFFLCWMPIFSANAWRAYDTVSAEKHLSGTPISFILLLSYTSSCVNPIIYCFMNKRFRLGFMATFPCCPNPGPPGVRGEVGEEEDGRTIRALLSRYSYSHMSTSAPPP
test-name: biochemical
Format: binding, Male Sprague-Dawley rats
measurement-context: rat pancreas membranes, 125I-CCK-8 50 pM, 25° C., 2 hours; read-out: IC50, 125I-CCK Pancreas
Flag rule - IC50 less than 1000 nM flags y; the remaining entries get n.

{"test-smiles": "CC(C)NC(=O)NC(=O)c1cccc(NC(=O)N[C@@H]2N=C(c3ccccc3)c3ccccc3N(C)C2=O)c1", "answer-label": "n"}
{"test-smiles": "O=C(Nc1cccc(-c2nnn[nH]2)c1)N[C@@H]1N=C(c2ccccc2)c2ccccc2N(CC2CC2)C1=O", "answer-label": "n"}
{"test-smiles": "CN1C(=O)[C@H](NC(=O)Nc2ccc(Cl)nc2)N=C(c2ccccc2)c2ccccc21", "answer-label": "n"}
{"test-smiles": "CN1C(=O)[C@H](NC(=O)Nc2cccc(C(N)=O)c2)N=C(c2ccccc2)c2ccccc21", "answer-label": "n"}
{"test-smiles": "CC[C@H](C)CN1C(=O)[C@H](NC(=O)Nc2cccc(-c3nnn[nH]3)c2)N=C(c2ccccc2)c2ccccc21", "answer-label": "y"}
{"test-smiles": "CN1C(=O)[C@H](NC(=O)Nc2cccc(NS(N)(=O)=O)c2)N=C(c2ccccc2)c2ccccc21", "answer-label": "y"}
{"test-smiles": "CN1C(=O)[C@H](NC(=O)Nc2cccc(-c3n[nH]c(=O)o3)c2)N=C(c2ccccc2)c2ccccc21", "answer-label": "n"}

---

target-or-test-system: CCK Receptor (Brain) (Cavia porcellus, UniProt H0VZC5)
Construct: the cortex was removed and homogenized in 25 mL ice-cold 0.32M sucrose; from tissue; host or cells: guinea pig cerebral cortex, P2 membrane pellet
Sequence (H0VZC5 1-426): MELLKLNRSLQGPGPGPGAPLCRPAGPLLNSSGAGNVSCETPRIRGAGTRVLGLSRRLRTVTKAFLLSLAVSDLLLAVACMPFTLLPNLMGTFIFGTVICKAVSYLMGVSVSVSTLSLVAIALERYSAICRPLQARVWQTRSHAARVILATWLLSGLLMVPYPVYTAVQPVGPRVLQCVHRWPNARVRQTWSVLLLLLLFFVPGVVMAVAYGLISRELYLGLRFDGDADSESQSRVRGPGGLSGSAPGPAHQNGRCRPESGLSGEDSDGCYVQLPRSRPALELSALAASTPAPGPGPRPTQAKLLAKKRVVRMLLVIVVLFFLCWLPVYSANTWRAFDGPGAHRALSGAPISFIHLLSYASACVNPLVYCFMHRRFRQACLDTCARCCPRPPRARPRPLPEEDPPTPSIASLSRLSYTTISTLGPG
test-name: CCK Receptor Binding (Brain), inhibition of 125I-CCK-8 binding
Parameters: species or system Male Hartley guinea pigs
measurement-context: guinea pig cortex membranes, 125I-CCK-8 50 pM, 25° C., 2 hours; read-out: IC50, 125I-CCK Brain
pIC50: −log10 of the molar value.
property-name: pIC50

{"compound": "CN1C(=O)[C@H](NC(=O)Nc2cccc(/C=C/C(=O)O)c2)N=C(c2ccccc2)c2ccccc21", "target-or-test-system": "CCK Receptor (Brain) (Cavia porcellus, UniProt H0VZC5)", "property-name": "pIC50", "endpoint-value": 8.05}
{"compound": "CC(=O)c1cccc(NC(=O)N[C@@H]2N=C(c3ccccc3)c3ccccc3N(C)C2=O)c1", "target-or-test-system": "CCK Receptor (Brain) (Cavia porcellus, UniProt H0VZC5)", "property-name": "pIC50", "endpoint-value": 8.44}
{"compound": "CC(C)N1C(=O)C(NC(=O)Nc2cccc(-c3nnn[nH]3)c2)N=C(c2ccccc2)c2ccccc21 (stereo not shown)", "target-or-test-system": "CCK Receptor (Brain) (Cavia porcellus, UniProt H0VZC5)", "property-name": "pIC50", "endpoint-value": 8.39}
{"compound": "CN1C(=O)[C@H](NC(=O)Nc2cccc(-c3noc(=O)[nH]3)c2)N=C(c2ccccc2)c2ccccc21", "target-or-test-system": "CCK Receptor (Brain) (Cavia porcellus, UniProt H0VZC5)", "property-name": "pIC50", "endpoint-value": 9.72}
